Target: T1, full-length human GIPR with an N-terminal FLAG tag (human, UniProt P48546 22-466)
T1 sequence (looked up): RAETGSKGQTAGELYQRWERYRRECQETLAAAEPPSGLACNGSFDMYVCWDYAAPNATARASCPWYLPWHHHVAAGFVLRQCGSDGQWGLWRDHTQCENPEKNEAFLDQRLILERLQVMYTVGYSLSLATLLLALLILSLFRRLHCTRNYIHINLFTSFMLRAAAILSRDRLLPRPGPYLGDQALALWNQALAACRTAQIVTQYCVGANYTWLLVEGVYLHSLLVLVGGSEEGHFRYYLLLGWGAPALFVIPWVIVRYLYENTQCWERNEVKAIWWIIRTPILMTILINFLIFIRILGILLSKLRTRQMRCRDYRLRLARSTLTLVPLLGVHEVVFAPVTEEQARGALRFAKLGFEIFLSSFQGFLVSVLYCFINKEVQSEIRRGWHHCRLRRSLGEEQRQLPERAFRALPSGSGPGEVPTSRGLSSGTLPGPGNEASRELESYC
Experiment: cell-based or functional assay
Non-standard residues stand in square brackets, D forms with d. No end group written: not given here. NMeY = CN[C@@H](Cc1ccc(O)cc1)C(=O)O; Aib = CC(C)(N)C(=O)O
EXPERIMENTAL ENDPOINT: Human GIPR cAMP, HEK293T EC50 (pM)
// return numeric value only (unit: pM, not printed)

binder="Me-Y[Aib]EGTFISDYSI[Aib]LDRKAQ[Aib]NFVNWLLAQRPSSGAPPPS-NH2 (not fully specified (residues 1, 17)) [Compound 20]" assay_result=0.3
binder="Y[Aib]EGTFISDYSIAKDR[Aib]AQ[Aib]NFVNWLLAQRPSSGAPPPS-OH (not fully specified (residues 1, 14); also: Me-Tyr methyl position not given here) [Compound 50]" assay_result=0.4
binder="[NMeY][Aib]EGTFISDYSIALDR[Aib]AQ[Aib]KFVNWLLAQR-NH2 (not fully specified (residue 21)) [Compound 121]" assay_result=0.3

API: the following record is the query input.
Memo: [NMeY][Aib]EGTFISDYSIALDRKHQ[Aib]NFVNWLLAQSPSSGAPPPS-NH2 (not fully specified (residue 17)) [Compound 64] , reported Human GIPR cAMP, HEK293T EC50: 0.5
